- procedure text: Metabolic stability in human liver microsomes
- Format: in vitro ADME
- details: human, pooled liver microsomes, pH 7.4; read-out: intrinsic clearance (Clint) in HLM
property measured: microsomal CLint at 0.51 μM

microsomal CLint at 0.51 μM for COc1cccc(C(=O)/C=C/c2cccc(B(O)O)c2)c1 [Compound 5] is 77 µL/min/mg

----------
- procedure text: Parallel artificial membrane permeability assay (PAMPA)
- Assay type: in vitro ADME
- details: donor pH 6.5, acceptor pH 7.4, 5 h, 37 °C, read-out: PAMPA (Mean Pe)
property measured: Papp at 5 h, 10 μM
State the result as a value with its unit after it.

The compound listed as `COc1cccc(C(=O)/C=C/c2cccc(B(O)O)c2)c1` has a reported Papp at 5 h, 10 μM of 17.5 ×10⁻⁶ cm/s

----------
- procedure text: Metabolic stability in human liver microsomes
- Format: in vitro ADME
- details: human, microsomes, pH 7.4
- Description: The metabolic stability of test compounds and controls [imipramine (Sigma-Aldrich, St. Louis, MO, USA), verapamil (Sigma-Aldrich, St. Louis, MO, USA), and warfarin (Sigma-Aldrich, St. Louis, MO, USA)] were assessed using human pooled liver human microsomes (20 mg/mL) (GIBCO, Frederick, MD, USA) and pooled liver CD1 mouse microsomes (20 mg/mL) (GIBCO, Frederick, MD, USA). […] Microsomal suspensions were thawed and diluted in phosphate buffer to obtain a final concentration of 0.25 mg/mL. […]
property measured: microsomal CLint at 0.51 μM (µL/min/mg)
Please reply with the bare figure in µL/min/mg and do not write the unit itself.

Recorded result, COc1cccc(C(=O)/C=C/c2cccc(B(O)O)c2)c1 [Compound 5] , microsomal CLint at 0.51 μM: 56.8

----------
- procedure text: Partition coefficient (Log P), OECD 117 HPLC method
Each entry below carries its reported chromatographic logP.

Lab note: measured chromatographic logP of COc1ccc(C(=O)/C=C/c2ccc(B(O)O)cc2)cc1OC [Compound 12] was 2.16

Just so you know, measured chromatographic logP for COc1cccc(C(=O)/C=C/c2ccccc2)c1 [Compound 1] came out at 3.73

For Nc1cccc(C(=O)/C=C/c2ccc(B(O)O)cc2)c1 [Compound 9] the compound record lists chromatographic logP as 1.18

chromatographic logP for COc1cccc(C(=O)/C=C/c2ccc(B(O)O)cc2)c1 [Compound 11] is 2.81

Query O=C(/C=C/c1ccc(B(O)O)cc1)c1cccc(O)c1 [Compound 10] yields chromatographic logP of 1.64

----------
- procedure text: Kinetic solubility
- Assay type: physicochemical
- details: phosphate-buffered saline, aqueous buffer, kinetic from dmso stock; PBS pH 7.4, 24 h, 25 °C; read-out: Kinect Solubility (KS) pH = 7.4
property measured: solubility at 24 h

Per the record, `COc1cccc(C(=O)/C=C/c2cccc(B(O)O)c2)c1` has solubility at 24 h of > 39.6 µg/mL

----------
- procedure text: Partition coefficient (Log P), OECD 117 HPLC method
Reported chromatographic logP values for the following compounds.
Please reply with the value in numeric form only.

Examples from the recorded data:
COc1ccc(C(=O)/C=C/c2cccc(B(O)O)c2)cc1OC    2.3
Nc1cccc(C(=O)/C=C/c2cccc(B(O)O)c2)c1    1.49
COc1cccc(C(=O)/C=C/c2cccc(B(O)O)c2)c1    2.92
O=C(/C=C/c1cccc(B(O)O)c1)c1cccc(O)c1    1.81

get_value(item= `O=C(/C=C/c1cccc(B(O)O)c1)c1ccccc1` , readout=chromatographic logP) returns 2.68

The measured values listed here are drawn from paper PMC12301034.
